Please provide measured IC50 for the entries that follow.
test system: primary AML specimens; experiment: Dose-response assays in primary AML specimens (6 days, CellTiterGlo); type: cell-based, human; settings: Homo sapiens, 144 h, primary AML specimen 08H118; 6 days; read-out: IC50
One number for each entry, in nM.

Solved entries (count: 3):
INSERT INTO assay_data (smiles, unit_annotation, val) VALUES
  ('CN(C)c1ccc(CC(=O)Nc2ncc(SCc3cccnc3)s2)cc1', 'nM', 887),
  ('Cn1cc(-n2cnc3c(NCc4nc5cc(Cl)c(Cl)cc5[nH]4)nc(N4CCOCC4)nc32)cn1', 'nM', 33.5),
  ('CC(C)(C)c1cnc(CSc2cnc(NC(=O)C3CCNCC3)s2)o1', 'nM', 291);

Lab note: next compound to report on.
// output IC50; input `CN(C)C/C=C/C(=O)Nc1ccc(C(=O)N2CCC[C@@H](Nc3ncc(Cl)c(-c4c[nH]c5ccccc45)n3)C2)cc1` ; system primary AML specimens
596
